Hey, just so you know, these numbers are from patent US20230348376A1.

# PROTOCOL DESCRIPTION: Evaluation of brain penetration in mice (blood and brain concentration at brain Cmax)
# Assay type: in vivo, mouse
# MEASUREMENT CONTEXT: male, C57BL/6J, mouse, brain/plasma, po, 1 mg/kg, 1 mg/kg single oral dose, C57BL/6J mice; read-out: Concentration in brain/in blood ratio at brain Cmax
Recorded Kp by entry
Keep the answer to the number alone.

Worked cases, Kp given:
# SMILES STRING, PARAMETER MEASURED, VALUE
measured = [
    ("C=C1/C(=C\\C=C2/CCC[C@]3(C)[C@@H]([C@H](C)CN4CC[C@@H](CC(F)F)C4)CC[C@@H]23)C[C@@H](O)C[C@@H]1O", "Kp", 0.84),
    ("C=C1[C@H](O)CC(=C/C=C2\\CCC[C@]3(C)[C@@H]([C@H](C)CN4CC[C@H](C(F)F)C4)CC[C@@H]23)C[C@H]1O", "Kp", 3.44),
    ("C=C1/C(=C\\C=C2/CCC[C@]3(C)[C@@H]([C@H](C)CN4CC[C@H](C(F)F)C4)CC[C@@H]23)C[C@@H](O)C[C@@H]1O", "Kp", 0.61),
    ("C[C@H](CN1CCC(O)(C(F)(F)F)CC1)[C@H]1CC[C@H]2/C(=C/C=C3C[C@@H](O)C[C@H](O)C3)CCC[C@]12C", "Kp", 0.39),
    ("C=C1[C@H](O)CC(=C/C=C2\\CCC[C@]3(C)[C@@H]([C@H](C)CN4CC[C@H](CC(F)F)C4)CC[C@@H]23)C[C@H]1O", "Kp", 2.18),
]

Problem: State its Kp: `C[C@H](CN1CC[C@H](OC(F)F)C1)[C@H]1CC[C@H]2/C(=C/C=C3C[C@@H](O)C[C@H](O)C3)CCC[C@]12C`
Result: 2.12

Problem: State its Kp: `C=C1[C@H](O)CC(=C/C=C2\CCC[C@]3(C)[C@@H]([C@H](C)CN4CC[C@@H](CC(F)F)C4)CC[C@@H]23)C[C@H]1O`
Result: 1.53

Problem: State its Kp: `C[C@H](CN1CC[C@H](OCC(F)F)C1)[C@H]1CC[C@H]2/C(=C/C=C3C[C@@H](O)C[C@H](O)C3)CCC[C@]12C`
Result: 0.52
